Target system: mammalian tyrosinase (Mus musculus, UniProt P11344)
Construct: Cellular lysates of Mel-Ab cells may be used as tyrosinase enzyme preparations; endogenous in cells; host or cells: Mel-Ab mouse melanocytes (cell lysate)
Sequence (P11344 19-533): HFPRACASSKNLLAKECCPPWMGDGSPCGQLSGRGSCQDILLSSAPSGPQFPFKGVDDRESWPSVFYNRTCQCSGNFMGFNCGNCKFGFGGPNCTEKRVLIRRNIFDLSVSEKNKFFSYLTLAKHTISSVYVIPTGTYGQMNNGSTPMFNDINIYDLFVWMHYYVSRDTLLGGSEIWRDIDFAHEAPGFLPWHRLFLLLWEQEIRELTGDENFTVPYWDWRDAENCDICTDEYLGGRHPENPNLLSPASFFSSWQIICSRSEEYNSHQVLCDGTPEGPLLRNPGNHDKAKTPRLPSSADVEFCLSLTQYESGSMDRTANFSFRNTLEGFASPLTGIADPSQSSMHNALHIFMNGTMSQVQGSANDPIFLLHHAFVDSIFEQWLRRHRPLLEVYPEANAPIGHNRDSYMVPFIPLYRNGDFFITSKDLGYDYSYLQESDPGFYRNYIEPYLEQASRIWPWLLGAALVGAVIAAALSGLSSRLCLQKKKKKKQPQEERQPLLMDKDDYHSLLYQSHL
Assay comment: cell-free mammalian tyrosinase enzyme assay
Assay type: biochemical
Conditions used: cell-free enzyme extract; read-out: E: concentration of compound that produces 50% inhibition in the cell-free mammalian tyrosinase enzyme assay
pIC50: −log10 of the molar value.
Recorded pIC50 determines the group label, using lo: < 5; mid: ≥ 5 and < 6; hi: ≥ 6

CN(C)c1ccc(C(=O)NO)cc1 [ID-498, 4-Dimethylaminobenzo-hydroxamic acid] | mid
CC(=O)Nc1cccc(C(=O)NO)c1 [ID-486, 3-Acetamidobenzohydroxamic acid] | mid
COc1ccc(C(=O)NO)c(O)c1 | mid
COc1ccc(C(=O)N[O-])cc1OC.[K+] | lo
Nc1cccc(C(=O)NO)c1 [ID-461, 3-Aminobenzohydroxamic acid] | mid

Now turn to the next molecule.
Would you mind sorting O=C(NO)c1cccc(Cl)c1 [ID-482, 3-Chlorobenzohydroxamic acid] into the appropriate category?
hi

Numbers sourced from patent US20030199558A1.
